Origin of measurements: ChEMBL document CHEMBL1142226

assay: Oral bioavailability in human at 0.25 to 1.5 mg/kg; type: ADME, organism-based; settings: in vivo
QUANTITY: bioavailability (%)
Dear colleague, please return just the value in %, with no unit written.

**Query** I'd like to know its bioavailability. The compound in question is "COc1cc2nc(N3CCc4c(cccc4NS(C)(=O)=O)C3)nc(N)c2c(-c2ccccn2)c1OC"
**Result** 73

====

system: Canis familiaris; assay: Unbound volume of distribution in Beagle dog at 0.5 mg/kg, iv; format: ADME, organism-based, Canis lupus familiaris; design: dose 0.5 mg/kg, route intravenous; conditions: in vivo
Vd values by entry
Dear colleague, please return just the value in L/kg, with no unit written.

Before answering, review these 4 worked examples.
COMPOUND	MEASUREMENT UNITS	Vd
COc1cc2nc(N3CCCN(C(=O)N4CCOCC4)CC3)nc(N)c2c(-c2ccccn2)c1OC	L/kg	4
COc1cc2c(cc1OC)CN(c1nc(N3CCCN(C(=O)N4CC(O)C(O)C4)CC3)nc3cc(OC)c(OC)cc13)CC2 (configuration not stated)	L/kg	100
COc1cc2nc(N3CCCN(C(=O)N4CCOCC4)CC3)cc(N)c2c(-c2ccc(F)cc2)c1OC	L/kg	96
COc1cc2nc(N3CCc4ncccc4C3)nc(N)c2c(-c2ncccn2)c1OC	L/kg	11

**Query** Which Vd is reported with Canis familiaris for this entry: "COc1cc2nc(N3CCCN(C(=O)N4CCOCC4)CC3)nc(N)c2cc1-c1ccccn1" ?
**Result** 20

**Query** What do we get for "COc1cc2nc(N3CCCN(C(=O)N4CCOCC4)CC3)cc(N)c2c(-c2ncco2)c1OC" ?
**Result** 4.5

**Query** What do we get for "COc1cc2nc(N3CCCN(C(=O)N4CCOCC4)CC3)cc(N)c2c(-c2ccccc2)c1OC" ?
**Result** 23
